- STUDY_TARGET: T1, Ac-IEPD-AMC
- T1 chain: XIEPDX
QUANTITY: kcat

# PROTEIN, QUANTITY, ASSAY_RESULT
measured = [
    ("wild-type rat granzyme B (protein) IIGGHEAKPHSRPYMAYLQIMDEYSGSKKCGGFLIREDFVLTAAHCSGSKINVTLGAHNIKEQEKMQQIIPVVKIIPHPAYNSKTISNDIMLLKLKSKAKRSSAVKPLNLPRRNVKVKPGDVCYVAGWGKLGPMGKYSDTLQEVELTVQEDQKCESYLKNYFDKANEICAGDPKIKRASFRGDSGGPLVCKKVAAGIVSYGQNDGSTPRAFTKVSTFLSWIKKTMKK", "kcat", "1.2 s⁻¹"),
    ("rat granzyme B I99A/N218A (protein) IIGGHEAKPHSRPYMAYLQIMDEYSGSKKCGGFLIREDFVLTAAHCSGSKINVTLGAHNIKEQEKMQQIIPVVKIIPHPAYNSKTASNDIMLLKLKSKAKRSSAVKPLNLPRRNVKVKPGDVCYVAGWGKLGPMGKYSDTLQEVELTVQEDQKCESYLKNYFDKANEICAGDPKIKRASFRGDSGGPLVCKKVAAGIVSYGQADGSTPRAFTKVSTFLSWIKKTMKKS", "kcat", "0.087 s⁻¹"),
    ("rat granzyme B N218A (protein) IIGGHEAKPHSRPYMAYLQIMDEYSGSKKCGGFLIREDFVLTAAHCSGSKINVTLGAHNIKEQEKMQQIIPVVKIIPHPAYNSKTISNDIMLLKLKSKAKRSSAVKPLNLPRRNVKVKPGDVCYVAGWGKLGPMGKYSDTLQEVELTVQEDQKCESYLKNYFDKANEICAGDPKIKRASFRGDSGGPLVCKKVAAGIVSYGQADGSTPRAFTKVSTFLSWIKKTMKKS", "kcat", "1.6 s⁻¹"),
    ("rat granzyme B I99A (protein) IIGGHEAKPHSRPYMAYLQIMDEYSGSKKCGGFLIREDFVLTAAHCSGSKINVTLGAHNIKEQEKMQQIIPVVKIIPHPAYNSKTASNDIMLLKLKSKAKRSSAVKPLNLPRRNVKVKPGDVCYVAGWGKLGPMGKYSDTLQEVELTVQEDQKCESYLKNYFDKANEICAGDPKIKRASFRGDSGGPLVCKKVAAGIVSYGQNDGSTPRAFTKVSTFLSWIKKTMKKS", "kcat", "0.14 s⁻¹"),
    ("rat granzyme B Y174A (protein) IIGGHEAKPHSRPYMAYLQIMDEYSGSKKCGGFLIREDFVLTAAHCSGSKINVTLGAHNIKEQEKMQQIIPVVKIIPHPAYNSKTISNDIMLLKLKSKAKRSSAVKPLNLPRRNVKVKPGDVCYVAGWGKLGPMGKYSDTLQEVELTVQEDQKCESYLKNAFDKANEICAGDPKIKRASFRGDSGGPLVCKKVAAGIVSYGQNDGSTPRAFTKVSTFLSWIKKTMKKS", "kcat", "0.87 s⁻¹"),
]
